AUC of dose-response viability curve: recorded values
test system: UO-31; test: AUC of dose-response viability curve, drug alone (arbitrary (AUC of normalised viability)); higher = less growth inhibition; details: treatment: drug alone; 5 days

{"Molecule": "CN1CCN(CCOc2cc(OC3CCOCC3)c3c(Nc4c(Cl)ccc5c4OCO5)ncnc3c2)CC1 [Saracatinib (AZD0530)]", "Experimental target": "UO-31", "Result type": "AUC of dose-response viability curve", "Reported result": 4.46}
{"Molecule": "CO[C@H]1CC2CC[C@@H](C)[C@@](O)(O2)C(=O)C(=O)N2CCCC[C@H]2C(=O)O[C@H]([C@H](C)C[C@@H]2CCC(OC(=O)C(C)(CO)CO)[C@H](OC)C2)CC(=O)[C@H](C)/C=C(\\C)[C@@H](O)[C@@H](OC)C(=O)[C@H](C)C[C@H](C)/C=C/C=C/C=C/1C (stereo in doubt) [Temsirolimus (Torisel)]", "Experimental target": "UO-31", "Result type": "AUC of dose-response viability curve", "Reported result": 1.58}
{"Molecule": "Cc1cc(CN2CCN(c3c(Br)cnc4[nH]c(-c5ccc(N6CCN(C)CC6)cc5)nc34)CC2)no1", "Experimental target": "UO-31", "Result type": "AUC of dose-response viability curve", "Reported result": 4.13}
{"Molecule": "COc1cc2c(Nc3ccc(Br)cc3F)ncnc2cc1OCC1CCN(C)CC1 [Vandetanib (Zactima)]", "Experimental target": "UO-31", "Result type": "AUC of dose-response viability curve", "Reported result": 4.05}

I have this molecule here, O=C(c1ccc(/C=C/c2n[nH]c3ccccc23)cc1)N1CCNCC1 [KW 2449] , and I need its recorded AUC of dose-response viability curve.
4.33

I'd like to know its AUC of dose-response viability curve. The molecule in question is Cl.Cl.NC1(c2ccc(-c3nc4ccn5c(=O)[nH]nc5c4cc3-c3ccccc3)cc2)CCC1 [MK-2206 dihydrochloride]
3.43

Fill in the blank: the reported AUC of dose-response viability curve of COc1cc2ncnc(Nc3cccc(Cl)c3)c2cc1OC [AG-1478 (Tyrphostin AG-1478)] is ____.
4.04

Requested field: AUC of dose-response viability curve. Item: OCCn1cc(-c2ccc3c(c2)CC/C3=N\O)c(-c2ccncc2)n1 [GDC-0879]
5.03

I am curious: what AUC of dose-response viability curve value has been reported for O=C1NC(=O)C(c2ccccc2[N+](=O)[O-])=C1Nc1ccc(O)c(Cl)c1 ?
4

Can you look up the measured AUC of dose-response viability curve of CN(c1ncccc1CNc1nc(Nc2ccc3c(c2)CC(=O)N3)ncc1C(F)(F)F)S(C)(=O)=O.O=S(=O)(O)c1ccccc1 for me?
3.81

What value of AUC of dose-response viability curve has been recorded for this entry: CCN(CC)CCCCNc1ncc2cc(-c3cc(OC)cc(OC)c3)c(NC(=O)NC(C)(C)C)nc2n1
3.7

Return reported AUC of dose-response viability curve; argument: NC(=O)Nc1sc(-c2ccc(F)cc2)cc1C(N)=O [TPCA-1]
3.64

Would you mind telling me what AUC of dose-response viability curve value was observed for Nc1nc(N)c2nc(-c3cccc(O)c3)c(-c3cccc(O)c3)nc2n1 [TG100-115] ?
5.18

---

Measured GI50, drug alone of individual entries
test system: 769-P; test: GI50, drug alone; higher = less potent; conditions: treatment: drug alone; 5 days

{"Compound": "COc1cc2ncnc(Nc3ccc(O)c(Br)c3)c2cc1OC", "Experimental target": "769-P", "GI50, drug alone": "> 10 µM"}
{"Compound": "COc1ccc2c(OCc3nnc4ccc(-c5ccccc5)nn34)ccnc2c1", "Experimental target": "769-P", "GI50, drug alone": "> 10 µM"}
{"Compound": "CCN(CC)CCCCNc1ncc2cc(-c3cc(OC)cc(OC)c3)c(NC(=O)NC(C)(C)C)nc2n1", "Experimental target": "769-P", "GI50, drug alone": "9.27 µM"}
{"Compound": "CCCCOc1c(C(=O)c2c(F)cc(C)cc2F)cnc2[nH]ncc12", "Experimental target": "769-P", "GI50, drug alone": "> 10 µM"}
{"Compound": "Cc1ccccc1-n1c(Cn2cnc3c(N)ncnc32)nc2cccc(C)c2c1=O", "Experimental target": "769-P", "GI50, drug alone": "> 10 µM"}
{"Compound": "Oc1ccc(-c2nc(-c3ccc(F)cc3)c(-c3ccncc3)[nH]2)cc1", "Experimental target": "769-P", "GI50, drug alone": "> 10 µM"}
{"Compound": "O=C1NC(=O)/C(=C/c2ccc(-c3ccc(F)cc3O)o2)S1", "Experimental target": "769-P", "GI50, drug alone": "> 10 µM"}
{"Compound": "CC(=O)NCC(=O)N1[C@H]2CC[C@H]1c1cc(Nc3ncc(C(F)(F)F)c(NC4CCC4)n3)ccc12", "Experimental target": "769-P", "GI50, drug alone": "0.375 µM"}

Fill blank: measured GI50, drug alone of the compound Br.Cc1ccc(C(=O)Cn2c3c(sc2=N)CCCC3)cc1 is ____.
> 10 µM

What measured GI50, drug alone goes with CN1CCN(c2nc(C3=C(c4c[nH]c5ccccc45)C(=O)NC3=O)c3ccccc3n2)CC1 ?
> 10 µM

Name the recorded GI50, drug alone for Cc1c(CN2CCN(C(=O)[C@H](C)O)CC2)sc2c(N3CCOCC3)nc(-c3cnc(N)nc3)nc12 [GDC-0980 (RG7422)] .
0.495 µM

---

Measured GI50 of drug by item
system: 786-O; assay: GI50 of drug in presence of dasatinib; higher = less potent; conditions: treatment: drug + dasatinib (fixed dose, not stated); 5 days

Guide cases for GI50 of drug, answers given:
{"Molecule": "O=C1NC(=O)/C(=C/c2ccc3c(c2)OC(F)(F)O3)S1 + Cc1nc(Nc2ncc(C(=O)Nc3c(C)cccc3Cl)s2)cc(N2CCN(CCO)CC2)n1", "GI50 of drug": "> 10 µM"}
{"Molecule": "CC(C)(C)c1cc(/C=C(\\C#N)C(N)=S)cc(C(C)(C)C)c1O [Tyrphostin AG 879 (AG 879)] + Cc1nc(Nc2ncc(C(=O)Nc3c(C)cccc3Cl)s2)cc(N2CCN(CCO)CC2)n1", "GI50 of drug": "< 0.003 µM"}
{"Molecule": "Oc1ccc(-c2nc(-c3ccc(F)cc3)c(-c3ccncc3)[nH]2)cc1 + Cc1nc(Nc2ncc(C(=O)Nc3c(C)cccc3Cl)s2)cc(N2CCN(CCO)CC2)n1", "GI50 of drug": "> 10 µM"}

Turning now to a further molecule:
// GI50 of drug lookup, key: Nc1ccc(-c2ccc3ncc4ccc(=O)n(-c5cccc(C(F)(F)F)c5)c4c3c2)cn1 [Torin 2] + Cc1nc(Nc2ncc(C(=O)Nc3c(C)cccc3Cl)s2)cc(N2CCN(CCO)CC2)n1
< 0.003 µM

---

tested on: TK-10; assay: GI50 of drug in presence of dasatinib; higher = less potent; details: treatment: drug + dasatinib (fixed dose, not stated); 5 days
Each item that follows carries a reported GI50 of drug.

{"Molecule": "COc1cc2nccc(Oc3ccc(NC(=O)Nc4ccc(F)cc4F)c(F)c3)c2cc1OC [Ki8751] + Cc1nc(Nc2ncc(C(=O)Nc3c(C)cccc3Cl)s2)cc(N2CCN(CCO)CC2)n1 [dasatinib]", "Experimental target": "TK-10", "GI50 of drug": "> 10 µM"}

Please look up its GI50 of drug: COC[C@H]1OC(=O)c2coc3c2[C@@]1(C)C1=C(C3=O)[C@@H]2CCC(=O)[C@@]2(C)C[C@@H]1OC(C)=O [Wortmannin] + Cc1nc(Nc2ncc(C(=O)Nc3c(C)cccc3Cl)s2)cc(N2CCN(CCO)CC2)n1 [dasatinib]
> 10 µM

Reported GI50 of drug, molecule Nc1nc(N)c2nc(-c3cccc(O)c3)c(-c3cccc(O)c3)nc2n1 [TG100-115] + Cc1nc(Nc2ncc(C(=O)Nc3c(C)cccc3Cl)s2)cc(N2CCN(CCO)CC2)n1 [dasatinib] : ____
> 10 µM

---

tested on: CAKI-1; experiment: minimum viability across doses, drug alone, relative to DMSO (fraction); higher = less growth inhibition; conditions: treatment: drug alone; 5 days
Result type: minimum viability across doses

{"Compound": "OCCn1cc(-c2cnc3nnn(Cc4ccc5ncccc5c4)c3n2)cn1", "Reported result": 0.615}
{"Compound": "CN(C)C/C=C/C(=O)Nc1cc2c(Nc3ccc(F)c(Cl)c3)ncnc2cc1O[C@H]1CCOC1", "Reported result": 0.047}
{"Compound": "Cc1nc(NC(=O)N2CCC[C@H]2C(N)=O)sc1-c1csc(C(C)(C)C)n1", "Reported result": 0.805}

Would you kindly share the measured minimum viability across doses for COC(=O)Nc1ccc(-c2nc(N3CCOCC3)c3cnn(C4CCN(C(=O)OC)CC4)c3n2)cc1 ?
0.127

Which minimum viability across doses value is on record for C[C@]1(O)C[C@@H](c2nc(-c3ccc4ccc(-c5ccccc5)nc4c3)c3c(N)nccn32)C1 ?
0.562

Give its minimum viability across doses value. Item: COc1ccc(-c2ccc3c(N4CCOC[C@@H]4C)nc(N4CCOC[C@@H]4C)nc3n2)cc1CO
0.0607

Look at this compound and give its reported minimum viability across doses. CCN1CCN(c2ccc(Nc3cc(N(C)C(=O)Nc4c(Cl)c(OC)cc(OC)c4Cl)ncn3)cc2)CC1
0.133

What value of minimum viability across doses has been reported for the following compound? CO[C@H]1C[C@H]2CC[C@@H](C)[C@@](O)(O2)C(=O)C(=O)N2CCCC[C@H]2C(=O)O[C@H]([C@H](C)C[C@@H]2CC[C@H](OP(C)(C)=O)[C@H](OC)C2)CC(=O)[C@H](C)/C=C(\C)[C@@H](O)[C@@H](OC)C(=O)[C@H](C)C[C@H](C)/C=C/C=C/C=C/1C (stereo in doubt) [Deforolimus (Ridaforolimus)]
0.456
